Tested on: Trichomonas vaginalis G3 trophozoites
measurement context: HTS, parasite screen at 1 µg/mL, replicate 2
Non-standard residues stand in square brackets, D forms with d. Residues, ends and D or L forms follow the SMILES beside them. GABA = NCCCC(=O)O
So basically, if T.vaginalis_%inb_Rep2 comes in under 10% it's Condition met, and if it's 10% or more it's Condition not met.

INPUT: Answer whether the molecule CC(C)C[C@@H]1NC(=O)[C@@H](C(C)C)NC(=O)[C@@H](C)NC(=O)CCCNC(=O)[C@@H](Cc2c[nH]c3ccccc23)NC(=O)[C@@H](C)NC(=O)[C@@H](C(C)C)NC1=O [Unguisin B] (cyclo([GABA][dA][dV]L[dV][dA][dW])) has T.vaginalis_%inb_Rep2 strictly less than 10%
OUTPUT: Condition not met

INPUT: Below 10% on T.vaginalis_%inb_Rep2? Entry COC(=O)c1cccc2oc(-c3cccc4oc(-c5ccccc5O)nc34)nc12
OUTPUT: Condition not met

INPUT: Please check: T.vaginalis_%inb_Rep2 for COC1=C(O)c2c(O)cc(C)c3c(O)cc(O)c(c23)C1=O , strictly under 10% or not?
OUTPUT: Condition not met

INPUT: Input CC1=C[C@H]2C(=O)O[C@H]3C[C@@H](C/C=C(\C)[C@@H](O)[C@@H](C)/C=C/C=C4\CO[C@H]([C@@H]1O)[C@@]42O)O[C@@]1(C=C[C@H](C)[C@@H](C2CCCCC2)O1)C3 ; condition: T.vaginalis_%inb_Rep2 strictly below 10%. Does it hold?
OUTPUT: Condition not met

INPUT: Confirm or reject: T.vaginalis_%inb_Rep2 of CN(C)C1C(=O)C(C(N)=O)=C(O)C2(O)C(=O)C3=C(O)c4c(O)ccc(Cl)c4C(C)(O)C3CC12.Cl (stereo not drawn) [Epichlortetracycline hydrochloride] lies strictly below 10%
OUTPUT: Condition met

INPUT: Strictly below 10% in T.vaginalis_%inb_Rep2? CC(C)=CC(=O)CC(C)c1ccc(C)cc1 (stereo not drawn)
OUTPUT: Condition not met

INPUT: Quick check: T.vaginalis_%inb_Rep2 of CO[C@H]1C[C@H](O[C@H]2[C@H](C)O[C@@H](O[C@@H]3/C(C)=C/C[C@@H]4C[C@@H](C[C@]5(C=C[C@H](C)[C@@H](C6CCCCC6)O5)O4)OC(=O)C4=C[C@H](C)[C@@H](O)[C@H]5OC/C(=C\C=C[C@@H]3C)[C@@]45O)C[C@@H]2OC)O[C@@H](C)[C@@H]1O under 10%?
OUTPUT: Condition not met

INPUT: Strictly below 10% in T.vaginalis_%inb_Rep2? CCCC[C@@H](C)[C@@H](OC(=O)C[C@@H](CC(=O)O)C(=O)O)[C@H](C[C@@H](C)CCCCCC[C@@H](O)C[C@H](O)[C@H](C)N)OC(=O)C[C@@H](CC(=O)O)C(=O)O
OUTPUT: Condition not met

INPUT: In plain terms, does CC(=O)OCc1c(O)c2c(c3c1OC(=O)c1c(C)cc(O)c(C=O)c1O3)C(O)OC2=O (stereo not drawn) come in under 10% for T.vaginalis_%inb_Rep2?
OUTPUT: Condition not met

INPUT: Problem: For the molecule O=C(O)C1CSC(c2ccccc2O)=N1 (stereo not drawn) [Dihydroaeruginoic acid] , is T.vaginalis_%inb_Rep2 under 10%?
OUTPUT: Condition not met

INPUT: T.vaginalis_%inb_Rep2 under 10%? Item: CO[C@H]1C[C@H](O[C@@H]2/C(C)=C/C[C@@H]3C[C@@H](C[C@]4(C=C[C@H](C)[C@@H](C5CCCCC5)O4)O3)OC(=O)[C@@H]3C=C(C)[C@@H](O)[C@H]4OC/C(=C\C=C\[C@@H]2C)[C@]43O)O[C@@H](C)[C@@H]1O [Doramectin monosaccharide]
OUTPUT: Condition not met

INPUT: Does CC[C@H]1OC(=O)[C@H](C)[C@@H](O[C@H]2C[C@@](C)(OC)[C@@H](O)[C@H](C)O2)[C@H](C)[C@@H](O[C@@H]2O[C@H](C)C[C@H](N(C)C)[C@H]2O)[C@@]2(C)CC(C)=C(O2)[C@H](C)[C@@H](O)[C@]1(C)O have T.vaginalis_%inb_Rep2 strictly under 10%?
OUTPUT: Condition not met

INPUT: Check if T.vaginalis_%inb_Rep2 falls below 10% for CN(C)C1C(=O)C(C(N)=O)=C(O)C2(O)C(=O)C3=C(O)c4c(O)cccc4C(C)(O)C3C(O)C12 (stereo not drawn) [Epioxytetracycline] .
OUTPUT: Condition not met

INPUT: Confirm or reject: T.vaginalis_%inb_Rep2 of CO[C@H]1/C=C\C=C(\C)C[C@H](C)[C@H](O)[C@H](C)/C=C(C)\C=C(\C)C(=O)O[C@@H]1[C@@H](C)[C@@H](O)[C@H](C)[C@@]1(O)C[C@@H](OC(=O)/C=C/C(=O)O)[C@H](C)[C@@H](C(C)C)O1 lies strictly below 10%
OUTPUT: Condition not met

INPUT: Please check: T.vaginalis_%inb_Rep2 for CO[C@@H]1[C@@H](O)[C@@H](O)[C@@H](Oc2ccc3c(O)c(NC(=O)c4ccc(O)c(CC=C(C)C)c4)c(=O)oc3c2C)OC1(C)C , strictly under 10% or not?
OUTPUT: Condition met

INPUT: Determine whether this molecule shows T.vaginalis_%inb_Rep2 lower than 10% (ties excluded): CCCCCCCCCCCC(=O)N[C@H]1CCOC1=O
OUTPUT: Condition not met

INPUT: Strictly below 10%: is that where T.vaginalis_%inb_Rep2 of CC1=CCCC(C)C(O)C(C)C(O)CCC=CC(C)C(O)C=CC(C)C(O)C(C)=CC(O[C@H]2O[C@H](CO)[C@@H](O)[C@H](O)[C@@H]2O)C(O)CC(O)CC(O)CC(O)C(C)C(O)C(C)C(O)CC(O)CC(O)C=CCC(C(C)C(O)CCCN)OC1=O (stereo partly drawn) sits?
OUTPUT: Condition not met

INPUT: Criterion: T.vaginalis_%inb_Rep2 strictly below 10%. Is it met by C/C=C(/C)c1cc(O)c(C)c2c1Oc1c(C)c(O)cc(/C(C)=C\C)c1C(=O)O2 ?
OUTPUT: Condition not met

INPUT: Strictly below 10% in T.vaginalis_%inb_Rep2? Cc1c2c(c(O)c3c(O)cccc13)C(=O)C1(O)C(O)=C(C(N)=O)C(=O)C(N(C)C)C1C2.Cl (stereo not drawn) [Epianhydrotetracycline hydrochloride]
OUTPUT: Condition met

INPUT: Please check: T.vaginalis_%inb_Rep2 for CCCNC[C@]1(O)[C@H](C)O[C@@H](O[C@H]2[C@H](C)[C@@H](O[C@@H]3O[C@H](C)C[C@H](N(C)C)[C@H]3O)[C@](C)(O)C[C@@H](C)CN[C@H](C)[C@@H](O)[C@](C)(O)[C@@H](CC)OC(=O)[C@@H]2C)C[C@@]1(C)OC , strictly under 10% or not?
OUTPUT: Condition not met
